# assay-name: xn = mol fraction of the nth substance listed
# assay-conditions: 318.15 K; 101 kPa; Liquid; x1 = 0.55
metric-name: mass density (kg/m3)
Respond numerically; units are kg/m3 and should not be typed.

{"molecule": "CCCC(=O)OCCC(C)C [3-methylbutyl butanoate] + CCO", "scale-unit": "kg/m3", "numeric-value": 823.9}
{"molecule": "CCOC(=O)c1ccccc1 [ethyl benzoate] + CCO", "scale-unit": "kg/m3", "numeric-value": 959.84}
{"molecule": "CCOC(=O)Cc1ccccc1 [ethyl phenylacetate] + CCO", "scale-unit": "kg/m3", "numeric-value": 953.16}

[ask] Indicate the recorded mass density value for this molecule: CCCCCCCC(=O)OCC [ethyl octanoate] + CCO
[reply] 828.36

[ask] Indicate the recorded mass density value for this molecule: CCCCCC(=O)OCC [ethyl hexanoate] + CCO
[reply] 828.05

###

# assay-name: xn = mol fraction of the nth substance listed
# assay-conditions: 298.15 K; 101 kPa; Liquid; x1 = 0.05
Overview of recorded mass density for various compounds
Respond numerically; units are kg/m3 and should not be typed.

{"compound": "CCCC(=O)OCCC(C)C [3-methylbutyl butanoate] + CCO", "scale-unit": "kg/m3", "numeric-value": 795.35}
{"compound": "CCCCCCCC(=O)OCC [ethyl octanoate] + CCO", "scale-unit": "kg/m3", "numeric-value": 796.5}
{"compound": "CCCCCC(=O)OCC [ethyl hexanoate] + CCO", "scale-unit": "kg/m3", "numeric-value": 795.44}
{"compound": "CCOC(=O)c1ccccc1 [ethyl benzoate] + CCO", "scale-unit": "kg/m3", "numeric-value": 815.81}

Please look at the following compound next.
[ask] Indicate the recorded mass density value for this compound: CCOC(=O)Cc1ccccc1 [ethyl phenylacetate] + CCO
[reply] 816.54

###

# assay-conditions: 318.15 K; 100.5 kPa; Liquid
± gives the expanded uncertainty stated by the source.
Overview of recorded viscosity for various compounds
Answer with the number, then the unit.

In the examples that follow, each entry is paired with its recorded viscosity.
{"compound": "CC(=O)OCCC(C)C [3-methylbutyl ethanoate]", "viscosity": "0.627 ± 0.014 mPa·s"}
{"compound": "CCCCCC(=O)OCC [ethyl hexanoate]", "viscosity": "0.711 ± 0.015 mPa·s"}
{"compound": "CCOC(=O)c1ccccc1 [ethyl benzoate]", "viscosity": "1.368 ± 0.019 mPa·s"}

Please look at the following compound next.
[ask] Indicate the recorded viscosity value for this compound: CCO
[reply] 0.771 ± 0.015 mPa·s

###

# assay-name: xn = mol fraction of the nth substance listed
# assay-conditions: 288.15 K; 100.5 kPa; Liquid; x1 = 0.45
metric-name: viscosity (mPa·s)
Respond numerically; units are mPa·s and should not be typed.

{"compound": "CC(=O)OCCC(C)C [3-methylbutyl ethanoate] + CCO", "numeric-value": 0.924}
{"compound": "CCCCCC(=O)OCC [ethyl hexanoate] + CCO", "numeric-value": 1.039}
{"compound": "CCOC(=O)c1ccccc1 [ethyl benzoate] + CCO", "numeric-value": 1.661}
{"compound": "CCOC(=O)Cc1ccccc1 [ethyl phenylacetate] + CCO", "numeric-value": 1.904}
{"compound": "CCCCCCCC(=O)OCC [ethyl octanoate] + CCO", "numeric-value": 1.42}

[ask] Indicate the recorded viscosity value for this compound: CCCC(=O)OCCC(C)C [3-methylbutyl butanoate] + CCO
[reply] 1.176

Just for reference, the NIST ThermoML archive (doi:10.1021/je050389b) is where these values come from.
